- STUDY_SYSTEM: T1, recombinant purified FRα (ECL assay calibrator) (human, UniProt P15328 25-234)
- T1 construct: Calibrator of the ECL sandwich assays; also called FRα calibrator; FRα standard
- T1 sequence (P15328 25-234 limits assumed): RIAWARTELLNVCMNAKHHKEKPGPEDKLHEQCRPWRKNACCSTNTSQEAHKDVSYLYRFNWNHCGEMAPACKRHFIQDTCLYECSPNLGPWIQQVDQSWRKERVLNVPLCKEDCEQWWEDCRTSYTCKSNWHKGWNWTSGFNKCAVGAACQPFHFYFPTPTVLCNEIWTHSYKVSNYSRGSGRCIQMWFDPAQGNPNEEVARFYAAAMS
- PROCEDURE_DETAILS: ECL sandwich on FRα, signal to background; capture 24H8.F3; binder = detection Ab
MEASURED_ENDPOINT: Average of S/B
Answers are plain numbers.

See these solved cases before continuing.
Monoclonal antibody 24H8.F3 (antibody, mouse IgG1, V domains shown, Murine IgG1 kappa from hybridoma; also called ATCC PTA-123097) VH: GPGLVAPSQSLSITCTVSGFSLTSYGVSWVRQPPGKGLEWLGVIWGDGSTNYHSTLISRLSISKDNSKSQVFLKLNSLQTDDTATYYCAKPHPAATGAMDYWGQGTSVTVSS VL: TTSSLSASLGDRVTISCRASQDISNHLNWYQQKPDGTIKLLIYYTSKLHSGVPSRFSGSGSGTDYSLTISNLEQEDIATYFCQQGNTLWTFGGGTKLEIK	1
Monoclonal antibody 1C6.E12.G8 (antibody, mouse IgG1, V domains shown, Murine IgG1 kappa from hybridoma; also called ATCC PTA-123091) VH: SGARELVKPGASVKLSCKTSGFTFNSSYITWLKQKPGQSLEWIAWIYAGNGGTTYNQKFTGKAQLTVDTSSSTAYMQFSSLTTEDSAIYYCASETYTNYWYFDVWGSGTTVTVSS VL: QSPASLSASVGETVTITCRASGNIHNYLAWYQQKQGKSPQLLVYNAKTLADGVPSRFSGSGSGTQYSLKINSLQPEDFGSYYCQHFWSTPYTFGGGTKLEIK	1
Monoclonal antibody 6A2.G7 (antibody, mouse IgG1, V domains shown, Murine IgG1 kappa from hybridoma; also called ATCC PTA-123093) VH: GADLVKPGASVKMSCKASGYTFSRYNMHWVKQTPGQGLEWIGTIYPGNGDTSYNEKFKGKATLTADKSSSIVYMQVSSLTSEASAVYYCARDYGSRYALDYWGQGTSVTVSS VL: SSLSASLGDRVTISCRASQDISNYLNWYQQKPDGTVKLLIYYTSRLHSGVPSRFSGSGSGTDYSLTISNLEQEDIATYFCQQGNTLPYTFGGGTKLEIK	63
Monoclonal antibody 19D4.B7 (antibody, mouse IgG2a, V domains shown, SULFO-TAG conjugated when used as detection antibody in the ECL assay; also called ATCC PTA-11884) VH: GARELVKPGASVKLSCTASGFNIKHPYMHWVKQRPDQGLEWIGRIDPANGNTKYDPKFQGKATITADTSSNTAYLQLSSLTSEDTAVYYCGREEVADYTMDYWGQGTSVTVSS VL: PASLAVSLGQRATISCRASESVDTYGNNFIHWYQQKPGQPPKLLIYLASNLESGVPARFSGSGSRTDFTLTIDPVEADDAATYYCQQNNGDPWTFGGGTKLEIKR	207
Monoclonal antibody 1D2.D8.G10 (antibody, mouse IgG1, V domains shown, Murine IgG1 kappa from hybridoma; also called 1D2.D8.G0; ATCC PTA-123098) VH: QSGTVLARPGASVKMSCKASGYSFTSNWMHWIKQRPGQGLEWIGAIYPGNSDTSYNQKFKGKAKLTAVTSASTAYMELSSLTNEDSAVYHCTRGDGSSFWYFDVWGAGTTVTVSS VL: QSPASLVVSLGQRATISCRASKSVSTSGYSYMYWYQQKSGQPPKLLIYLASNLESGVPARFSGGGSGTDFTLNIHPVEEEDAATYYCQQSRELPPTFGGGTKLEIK	1
Monoclonal antibody 1A8.G11.E7 (antibody, mouse IgG1, V domains shown, Murine IgG1 kappa from hybridoma; also called ATCC PTA-123100) VH: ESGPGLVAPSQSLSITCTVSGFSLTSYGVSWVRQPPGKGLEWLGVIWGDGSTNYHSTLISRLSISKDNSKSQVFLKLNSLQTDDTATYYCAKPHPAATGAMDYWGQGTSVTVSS VL: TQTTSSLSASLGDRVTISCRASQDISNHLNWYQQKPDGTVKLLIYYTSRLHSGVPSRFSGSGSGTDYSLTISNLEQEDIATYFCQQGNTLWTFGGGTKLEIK	1
Monoclonal antibody 26A9.C4 (antibody, mouse IgG1, V domains shown, Murine IgG1 kappa from hybridoma; also called ATCC PTA-123092) VH: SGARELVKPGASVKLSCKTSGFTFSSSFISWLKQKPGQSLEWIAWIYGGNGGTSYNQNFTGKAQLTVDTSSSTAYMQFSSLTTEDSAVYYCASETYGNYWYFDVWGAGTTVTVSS VL: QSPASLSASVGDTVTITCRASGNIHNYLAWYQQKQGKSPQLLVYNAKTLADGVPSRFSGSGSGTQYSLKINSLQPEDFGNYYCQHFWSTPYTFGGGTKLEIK	1

Ask: Please give the documented Average of S/B of Monoclonal antibody 24H8.D3 (antibody, mouse IgG1, V domains shown, Biotin-conjugated when used as capture antibody in the ECL assay; also called ATCC PTA-123090) VH: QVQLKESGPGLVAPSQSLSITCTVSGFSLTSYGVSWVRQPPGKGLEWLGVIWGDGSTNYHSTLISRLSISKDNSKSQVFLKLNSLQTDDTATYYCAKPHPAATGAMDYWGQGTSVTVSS VL: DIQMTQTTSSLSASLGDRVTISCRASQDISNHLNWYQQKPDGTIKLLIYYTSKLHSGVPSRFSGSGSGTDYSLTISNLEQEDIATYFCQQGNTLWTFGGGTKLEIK
Reply: 1
